The following compounds are shown together with reported TGI values.
- Tested on: NCI/ADR-RES ovarian
- Experiment Notes: NCI tumour cell line growth inhibition, 48 h

Hello, please tell me recorded TGI for this one: OCCOCn1cc(Cn2ncc3c(SCc4ccccc4)ncnc32)nn1 > 100 µM

Hello, please tell me recorded TGI for this one: NC1CC(=O)c2c(Cl)sc(Cl)c21 (stereo unspecified) 49.9 µM

Hello, please tell me recorded TGI for this one: CCOC(=O)C(NC(=O)c1ccccc1)(Nc1ccc(S(=O)(=O)Nc2nc(C)cc(C)n2)cc1)C(F)(F)F (stereo unspecified) > 100 µM

Hello, please tell me recorded TGI for this one: COc1ccc(/C=C(\C#N)c2nc(N)nc(N3N=C(C)CC3(C)C)n2)c(O)c1 97.3 µM

Hello, please tell me recorded TGI for this one: CC(NC(=O)C(N)Cc1ccc(O)cn1)C(=O)O (stereo unspecified) > 100 µM

Hey, just so you know, these numbers are from PubChem BioAssay (NCI).
